- Tested on: MOLM1 and UCSD/AML1 (averaged)
- method summary: cell viability relative to DMSO control (POC); higher = less growth inhibition
- experimental parameters: 1 µM; 72 h
The campaign covered roughly 2,100 compounds. About 180 (8.6%) showed an effect of 50% or more. The entries come from a sample that favours strong results as a whole.
# YES = cell viability below 80% (exclusive); NO = cell viability at/above 80%

[
  {
    "molecule": "COc1ccc2[nH]c([S+]([O-])Cc3ncc(C)c(OC)c3C)nc2c1 (stereo not given)",
    "assigned label": "NO"
  },
  {
    "molecule": "COc1cc([C@@H]2c3cc4c(cc3[C@@H](O[C@@H]3O[C@@H]5CO[C@@H](c6cccs6)O[C@H]5[C@H](O)[C@H]3O)[C@H]3COC(=O)[C@H]23)OCO4)cc(OC)c1O",
    "assigned label": "YES"
  },
  {
    "molecule": "COc1c(O)cc2c(-c3ccccc3)cc(=O)oc2c1OC",
    "assigned label": "NO"
  },
  {
    "molecule": "COc1cc([C@@H]2c3cc4c(cc3[C@@H](O[C@@H]3O[C@@H]5CO[C@@H](c6cccs6)O[C@H]5[C@H](O)[C@H]3O)[C@H]3COC(=O)[C@H]23)OCO4)cc(OC)c1O [Teniposide (Vumon)]",
    "assigned label": "YES"
  },
  {
    "molecule": "C#Cc1cccc(Nc2ncnc3cc(OCCOC)c(OCCO)cc23)c1 [OSI-420 (Desmethyl Erlotinib)]",
    "assigned label": "YES"
  },
  {
    "molecule": "COc1cc2c(N3CCN(C(=O)Nc4ccc(OC(C)C)cc4)CC3)ncnc2cc1OCCCN1CCCCC1 [Tandutinib (MLN518)]",
    "assigned label": "YES"
  },
  {
    "molecule": "CCC(=O)OC1[C@@H]2CC3=C4CC(=O)O[C@@H](c5ccoc5)[C@]4(C)CCC3[C@@](C)(C2=O)[C@@H](CC(=O)OC)C1(C)C (stereo not given in full)",
    "assigned label": "NO"
  },
  {
    "molecule": "C#Cc1cccc(Nc2ncnc3cc(OCCOC)c(OCCO)cc23)c1",
    "assigned label": "YES"
  },
  {
    "molecule": "N=C1C=CC(=C(c2ccc(N)cc2)c2ccc(N)cc2)C=C1",
    "assigned label": "NO"
  },
  {
    "molecule": "COc1ccc(C2CC(=O)c3ccc(OC)cc3O2)cc1 (stereo not given)",
    "assigned label": "NO"
  },
  {
    "molecule": "COC(=O)CC[C@@H](C)[C@H]1CC[C@H]2[C@@H]3[C@H](O)C[C@@H]4C[C@H](O)CC[C@]4(C)[C@H]3C[C@H](O)[C@]12C",
    "assigned label": "NO"
  },
  {
    "molecule": "COc1cc2c(Oc3ccc4[nH]c(C)cc4c3F)ncnc2cc1OCCCN1CCCC1 [Cediranib (AZD2171)]",
    "assigned label": "YES"
  },
  {
    "molecule": "COc1cc(O)c2c(c1)C(=O)c1cc(C)cc(O)c1C2=O",
    "assigned label": "NO"
  },
  {
    "molecule": "CC(=O)O[C@@H]1C[C@H]2C(C)(C)C(=O)CC[C@]2(C)[C@H]2CC[C@@]3(C)[C@H](c4ccoc4)OC(=O)[C@H]4O[C@]43[C@@]21C",
    "assigned label": "NO"
  },
  {
    "molecule": "C[C@H]1CC2C3CCC4=CC(=O)C=C[C@]4(C)[C@@]3(F)[C@@H](O)C[C@]2(C)[C@@]1(O)C(=O)COP(=O)(O)O (stereo not given in full)",
    "assigned label": "YES"
  },
  {
    "molecule": "O=c1cc(-c2ccccc2)oc2cc(O)c(O)c(O)c12",
    "assigned label": "NO"
  },
  {
    "molecule": "COc1cc(Nc2c(C#N)cnc3cc(OCCCN4CCN(C)CC4)c(OC)cc23)c(Cl)cc1Cl [Bosutinib (SKI-606)]",
    "assigned label": "YES"
  },
  {
    "molecule": "O=C(NCCCNc1nc(Nc2cccc(NC(=O)N3CCCC3)c2)ncc1I)c1cccs1",
    "assigned label": "YES"
  },
  {
    "molecule": "COc1cc2ncnc(Nc3ccc(F)c(Cl)c3)c2cc1OCCCN1CCOCC1 [Gefitinib (Iressa)]",
    "assigned label": "NO"
  },
  {
    "molecule": "COc1cc2ncnc(-n3nc(-c4ccccn4)nc3N)c2cc1OC",
    "assigned label": "YES"
  }
]

* * *

- Test system: MOLM1 and UCSD/AML1 (averaged)
- method summary: cell viability relative to DMSO control (POC); higher = less growth inhibition
- experimental parameters: 1 µM; 72 h
In all, about 2,100 compounds went through this assay and about 180 (8.6%) showed an effect of 50% or more. For the sample, strong results were picked, then their nearest neighbours and some compounds at random.
# true = cell viability below 30% (exclusive); false = cell viability at/above 30%

[
  {
    "smiles string": "COc1ccc(C(=O)CC(=O)O)c2c1C=CC(C)(C)O2",
    "study target": "MOLM1 and UCSD/AML1 (averaged)",
    "assigned label": "false"
  },
  {
    "smiles string": "Nc1cc(C(F)(F)F)c(-c2cc(N3CCOCC3)nc(N3CCOCC3)n2)cn1",
    "study target": "MOLM1 and UCSD/AML1 (averaged)",
    "assigned label": "true"
  },
  {
    "smiles string": "CNS(=O)(=O)c1ccc(NC(=O)c2ccccc2C(=O)O)cc1",
    "study target": "MOLM1 and UCSD/AML1 (averaged)",
    "assigned label": "false"
  },
  {
    "smiles string": "CC/C(=C(\\c1ccccc1)c1ccc(OCCN(C)C)cc1)c1ccccc1",
    "study target": "MOLM1 and UCSD/AML1 (averaged)",
    "assigned label": "false"
  }
]
